biological target: bBBP-A (Gallus gallus)
Sequence (E1BTQ4 22-146): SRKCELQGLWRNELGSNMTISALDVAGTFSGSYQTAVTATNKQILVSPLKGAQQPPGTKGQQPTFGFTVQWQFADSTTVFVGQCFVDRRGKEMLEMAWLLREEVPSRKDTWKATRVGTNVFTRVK
pKd: −log10 of the molar value.
assay_metric: pKd

smiles_str: O=C(O)CCCC[C@@H]1SC[C@@H]2NC(=O)N[C@@H]21
assay_metric: pKd
assay_result: > 9.00
